# target_or_system: HIV-1 Env of isolate MGRM-C-009 (subtype C) (HIV-1)
# test_description: cell-based or functional assay
measured_attribute: IC50 (µg/mL), pseudovirus neutralization

I would be grateful if you could share the reported IC50 (µg/mL), pseudovirus neutralization for PGT-127 (antibody, V domains shown) VH: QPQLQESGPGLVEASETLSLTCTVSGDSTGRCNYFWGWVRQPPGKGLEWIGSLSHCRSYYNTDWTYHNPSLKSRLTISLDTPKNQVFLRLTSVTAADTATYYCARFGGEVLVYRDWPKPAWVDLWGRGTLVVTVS VL: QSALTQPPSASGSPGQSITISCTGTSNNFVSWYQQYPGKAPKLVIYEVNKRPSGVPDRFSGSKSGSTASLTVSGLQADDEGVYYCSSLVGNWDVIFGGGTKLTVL . > 50 µg/mL
